All values here come from ChEMBL document CHEMBL4011649.

Target: 5-hydroxytryptamine receptor 2C (Homo sapiens)
Sequence (whole entry): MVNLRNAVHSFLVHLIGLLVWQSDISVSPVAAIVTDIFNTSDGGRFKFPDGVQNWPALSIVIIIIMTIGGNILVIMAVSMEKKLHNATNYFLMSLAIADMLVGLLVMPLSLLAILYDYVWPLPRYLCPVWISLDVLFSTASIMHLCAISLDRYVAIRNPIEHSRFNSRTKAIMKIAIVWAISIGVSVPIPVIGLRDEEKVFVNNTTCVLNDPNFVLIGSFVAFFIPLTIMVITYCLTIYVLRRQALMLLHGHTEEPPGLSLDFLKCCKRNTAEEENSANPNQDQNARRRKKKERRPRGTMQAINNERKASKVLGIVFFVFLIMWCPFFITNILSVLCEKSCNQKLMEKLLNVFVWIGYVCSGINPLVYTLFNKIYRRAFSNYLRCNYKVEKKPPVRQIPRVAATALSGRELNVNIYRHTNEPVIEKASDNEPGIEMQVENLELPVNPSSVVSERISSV
Experiment: Agonist activity at human 5-HT2C-INI receptor isoform expressed in Flp-IN HEK293 cells assessed as induction of Gq-mediated calcium flux measured every second for 5 mins by Fluo-4 dye based FLIPR assay relative to serotonin
Assay type: functional, cell-based
property.measured: Emax (%)
Answer in %, number only, no unit symbol.

Reference set (3 entries):
COc1ccc(F)cc1C1CC1CNCc1cccnc1OC (racemic)	65
COc1ccc(F)cc1C1CC1CNCc1ccccc1C(N)=O (racemic)	31
COc1ccc(F)cc1[C@@H]1C[C@H]1CNCc1cccs1.Cl	81

Query string: Reported Emax, compound CNC[C@H]1C[C@@H]1c1cc(F)ccc1OC : ____
Result string: 71

Query string: Which Emax value is on record for C=CCOc1ccc(F)cc1[C@H]1C[C@@H]1CNC.Cl ?
Result string: 15

Query string: Endpoint output: Emax of COc1ccccc1C(C)NCC1CC1c1cc(F)ccc1OC.Cl (racemic) . Value?
Result string: 81

Query string: For the compound COc1cccc(CNC[C@@H]2C[C@H]2c2cc(F)ccc2OC)c1.Cl , what Emax is on record?
Result string: 85
